Recorded Threshold of tumor cell numbers for HPV-16 detection by entry
system: HPV-16; assay: qPCR sensitivity against HPV-HNSCC tumor samples diluted among 10 ng normal human DNA; settings: Sample # 31
Field format: number, assumed tumor cells, no unit text.

*Q* If you can, please state the reported Threshold of tumor cell numbers for HPV-16 detection value of E7: previously designed (historical) HPV-16 E7 primers and Taqman probe, SEQ ID NO: 10-12; part of CLIA test (nucleic acid, Taqman probe, labels not given here, part of CLIA test) DNA 1: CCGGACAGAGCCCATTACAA DNA 2: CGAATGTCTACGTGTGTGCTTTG DNA 3: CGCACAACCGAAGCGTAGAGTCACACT .
*A* 0.6

*Q* I would be grateful if you could share the reported Threshold of tumor cell numbers for HPV-16 detection for E6: previously designed (historical) HPV-16 E6 primers and Taqman probe, SEQ ID NO: 7-9, positive control (nucleic acid, Taqman probe, labels not given here) DNA 1: TCAGGACCCACAGGAGCG DNA 2: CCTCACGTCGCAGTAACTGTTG DNA 3: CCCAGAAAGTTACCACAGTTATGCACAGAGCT .
*A* 3.0

*Q* Which Threshold of tumor cell numbers for HPV-16 detection value belongs to BR E1-5: HPV-16 E1 region primer/probe set, SEQ ID NO: 40-42 (same as SEQ ID NO: 1-3) (nucleic acid, chemistry not given here) DNA 1: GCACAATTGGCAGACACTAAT DNA 2: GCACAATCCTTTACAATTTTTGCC DNA 3: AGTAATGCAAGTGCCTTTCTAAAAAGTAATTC ?
*A* 0.6

*Q* Please report the recorded Threshold of tumor cell numbers for HPV-16 detection for BR E6-1: HPV-16 E6 region (172-373 bp) primer/probe set, SEQ ID NO: 58-60 (nucleic acid, chemistry not given here) DNA 1: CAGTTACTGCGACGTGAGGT DNA 2: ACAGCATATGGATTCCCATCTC DNA 3: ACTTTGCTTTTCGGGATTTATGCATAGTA .
*A* 0.6

*Q* Return reported Threshold of tumor cell numbers for HPV-16 detection; argument: BR E1-4: HPV-16 E1 region primer/probe set, SEQ ID NO: 37-39 (nucleic acid, chemistry not given here) DNA 1: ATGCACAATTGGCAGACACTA DNA 2: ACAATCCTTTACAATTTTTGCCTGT DNA 3: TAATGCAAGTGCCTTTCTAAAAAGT
*A* 0.6
